Measured values drawn from patent US20020045780A1 for this set.

- ASSAY_NOTES: Acute toxicity in mice (single i.p. dose)
- Format: in vivo
- PARTICULARS: female, CD-1, mouse, in vivo, ip; mice, single dose i.p., scored two hours after dose; read-out: Acute LD50
Where a name gives a salt, the structure may show the parent alone.
PROPERTY_LABEL: LD50 at 2 h (µmol/kg)
Give a bare numeral; the unit µmol/kg is implied.

{"COMPOUND": "CCNCCCCCNCCCCCNCC [DE(5,5), Trihydrochloride]", "READING_UNIT": "µmol/kg", "LD50 at 2 h": 1420}
{"COMPOUND": "CCNCCCCCNCCCCNCC [DE(4,5), 3,8,14-Triazahexadecane Trihydrochloride]", "READING_UNIT": "µmol/kg", "LD50 at 2 h": 1640}
{"COMPOUND": "CCNCCCCCNCCCCNCCCCCNCC.Cl.Cl.Cl.Cl", "READING_UNIT": "µmol/kg", "LD50 at 2 h": 424}

LD50 at 2 h for CCNCCCCNCCCCCNCCCCNCC ? 638

###

- System: ornithine decarboxylase (ODC)
- ASSAY_NOTES: ODC activity in treated L1210 cells
- Type: cell-based, murine
- PARTICULARS: L1210, 1 μM at 4 hours
Where a name gives a salt, the structure may show the parent alone.
PROPERTY_LABEL: ODC activity, percent of untreated control

Please review the following examples before continuing.
{"COMPOUND": "NCCCCNCCCCN [HSPD, Homospermidine Trihydrochloride]", "OBSERVED": "11% of untreated control"}
{"COMPOUND": "NCCCCNCCCN", "OBSERVED": "16% of untreated control"}
{"COMPOUND": "CCCNCCCCNCCCCNCCC [DPHSPD, Trihydrochloride]", "OBSERVED": "86% of untreated control"}
{"COMPOUND": "CCNCCCNCCCCN [MESPD(N1), N^1-Ethylspermidine Trihydrochloride]", "OBSERVED": "10 (10) percent of untreated control"}
{"COMPOUND": "CNCCCNCCCNC [DMNSPD, Trihydrochloride]", "OBSERVED": "17% of untreated control"}
{"COMPOUND": "CCCNCCCCNCCCCN [MPHSPD, Trihydrochloride]", "OBSERVED": "20% of untreated control"}
{"COMPOUND": "NCCCNCCCN [NSPD, N—(3-aminopropyl)-1,3-propanediamine, reference compound]", "OBSERVED": "11% of untreated control"}
{"COMPOUND": "CNCCCCCNCCCCNC [DM(4,5), Trihydrochloride]", "OBSERVED": "56% of untreated control"}
{"COMPOUND": "CCCNCCCNCCCCN [MPSPD(N1), N^1-Propylspermidine Trihydrochloride]", "OBSERVED": "18% of untreated control"}
{"COMPOUND": "CNCCCCNCCCCNC [DMHSPD, Trihydrochloride]", "OBSERVED": "20% of untreated control"}

ODC activity, percent of untreated control for CCCNCCCCNCCCN [MPSPD(N8), N^8-Propylspermidine Trihydrochloride] ? 14% of untreated control

Also check CCNCCCNCCCN 42% of untreated control

###

- System: spermidine/spermine acetyltransferase (SSAT)
- ASSAY_NOTES: SSAT activity in treated L1210 cells
- Type: cell-based, murine
- PARTICULARS: L1210, 10 μM at 48 hours (triamine analogues)
Counter-ions that a name gives are not always drawn.
PROPERTY_LABEL: SSAT activity, percent of untreated control

Please review the following examples before continuing.
{"COMPOUND": "CCCNCCCCCNCCCCNCCC [DP(4,5), 4,9,15-Triazaoctadecane Trihydrochloride]", "OBSERVED": "80% of untreated control"}
{"COMPOUND": "CCNCCCNCCCCN [MESPD(N1), N^1-Ethylspermidine Trihydrochloride]", "OBSERVED": "430% of untreated control"}
{"COMPOUND": "CNCCCCNCCCCNC [DMHSPD, Trihydrochloride]", "OBSERVED": "510% of untreated control"}

SSAT activity, percent of untreated control for CCCNCCCCNCCCN [MPSPD(N8), N^8-Propylspermidine Trihydrochloride] ? 500% of untreated control

Also check CCNCCCCNCCCN [MESPD(N8), N^8-Ethylspermidine Trihydrochloride] 400% of untreated control
